Listing of recorded Binding Signal (fold over 6E7 Parental antibody) by entry.
Biological target: T1, human TREM2 (human, UniProt Q9NZC2 19-174, limits assumed)
T1 construct: also called triggering receptor expressed on myeloid cells 2
T1 sequence: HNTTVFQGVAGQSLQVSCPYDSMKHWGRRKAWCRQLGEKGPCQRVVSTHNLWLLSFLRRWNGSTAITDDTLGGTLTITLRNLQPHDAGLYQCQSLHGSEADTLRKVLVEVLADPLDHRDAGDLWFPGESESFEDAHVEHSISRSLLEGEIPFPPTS
Assay: 1st screen (110 nM or 10 nM)
Just the number please, in fold, no unit attached.

BINDER	UNIT ABBREV	RECORDED VALUE
V69 (antibody, V domains shown) VH: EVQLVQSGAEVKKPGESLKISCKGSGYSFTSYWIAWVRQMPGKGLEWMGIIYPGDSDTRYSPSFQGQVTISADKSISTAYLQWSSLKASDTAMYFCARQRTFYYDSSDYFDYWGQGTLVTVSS VL: DIQMTQSPSSVSASVGDRVTITCRASQGISSYLAWYQQKPGKAPKLLIYAASSLQNGVPSRFSGSGSGTDFTLTISSLQPEDFATYFCQQADSFPRTFGQGTKLEIK	fold	0.41

### Prompt Looking for the measured Binding Signal (fold over 6E7 Parental antibody) of V45 (antibody, V domains shown) VH: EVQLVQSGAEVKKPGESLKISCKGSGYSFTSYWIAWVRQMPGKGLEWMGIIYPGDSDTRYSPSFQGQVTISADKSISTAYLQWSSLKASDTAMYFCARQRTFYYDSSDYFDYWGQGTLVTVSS VL: DIQMTQSPSSVSASVGDRVTITCRASQGISSFLAWYQQKPGKAPKLLIYAASSLQNGVPSRFSGSGSGTDFTLTISSLQPEDFATYFCQQADSFPRTFGQGTKLEIK , can you help?
### Response 0.43
